test-protocol: Cytotoxicity against African green monkey Vero cells assessed as reduction in cell viability after 3 days by MTT assay
Type: cell-based
applied-conditions: chlorocebus sabaeus
recorded-metric: CC50 at 72 h (µM)
Numbers only; they are read as µM.

Value of measured CC50 at 72 h for the entry "C[C@@H]1CC2=C(C1)[C@@H]([C@@]1(C)C(=O)C[C@H]3[C@@H](C1=O)C3(C)C)[C@@H](C)C2=O" : 584

* * *

test-protocol: Selectivity index, ratio of CC50 for African green monkey Vero cells to IC50 for HSV-2 infected in African green monkey Vero cells
Type: toxicity
applied-conditions: HSV-2 infected Vero cells, read-out: Ratio CC50/IC50
recorded-metric: selectivity ratio
Quick one: just the number, no unit, thanks!

Value of measured selectivity ratio for the entry "C[C@@H]1CC2=C(C1)[C@@H]([C@@]1(C)C(=O)C[C@H]3[C@@H](C1=O)C3(C)C)[C@@H](C)C2=O" : 3.4

Value of measured selectivity ratio for the entry "C[C@@H]1CC2=C(C1)[C@@H]([C@@]1(C)C(=O)C[C@H]3[C@@H](C1=O)C3(C)C)[C@H](C)C2=O" : 5.8
